# target of assay: FABP4 (Homo sapiens)
# Sequence (P15090 2-132): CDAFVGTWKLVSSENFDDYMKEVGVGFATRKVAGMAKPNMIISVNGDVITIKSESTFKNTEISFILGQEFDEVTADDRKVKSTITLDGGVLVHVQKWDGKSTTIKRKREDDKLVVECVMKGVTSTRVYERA
# assay details: fluorescence displacement; STD-NMR (weak signal) and ligand-observed 1H-NMR
# Assay type: binding
pIC50: −log10 of the molar value.

compound	pIC50
OCc1ccc(O)cc1 [4-HBA, 4-hydroxybenzyl alcohol]	4.30

###

# target of assay: FABP4 (Homo sapiens)
# assay details: fluorescence displacement; STD-NMR and ligand-observed 1H-NMR
# Format: binding
readout label: IC50

line notation	measurement
OCc1ccc(O[C@@H]2O[C@H](CO)[C@@H](O)[C@H](O)[C@H]2O)cc1	29.8 µM
